# Test system: SNB-75
# assay_text: NCI 60 cell line screen
# Assay type: cell-based
# run_conditions: SNB-75, CNS Cancer; single concentration 10^−5 M
Label Criterion met when Growth % is strictly below 90%; at or above that, label Criterion not met.

Take the compound COc1cc(-c2cc(-c3c[nH]c4ccccc34)nc(-c3c[nH]c4ccccc34)c2C#N)cc(OC)c1OC and say whether its Growth % is less than 90%.
Criterion met

Bench note: check whether N#Cc1c(-c2ccc(F)cc2)cc(-c2c[nH]c3ccccc23)nc1-c1c[nH]c2ccccc12 shows Growth % below 90%
Criterion not met

Just wondering, is Growth % of N#Cc1c(-c2ccc(Cl)cc2)cc(-c2c[nH]c3ccccc23)nc1-c1c[nH]c2ccccc12 below 90%?
Criterion not met

Confirm or reject: Growth % of N#Cc1c(-c2ccccc2)cc(-c2c[nH]c3ccccc23)nc1-c1c[nH]c2ccccc12 lies strictly below 90%
Criterion met

Is Growth % strictly under 90% for the entry CN(C)c1ccc(-c2cc(-c3c[nH]c4ccccc34)nc(-c3c[nH]c4ccccc34)c2C#N)cc1 ?
Criterion met

Is it true that Growth % reported for COc1ccc(-c2cc(-c3c[nH]c4ccccc34)nc(-c3c[nH]c4ccccc34)c2C#N)cc1 is less than 90%?
Criterion not met

====

What Growth % was measured for each of the following?
# Test system: HOP-62
# assay_text: NCI 60 cell line screen
# Type: cell-based
# run_conditions: HOP-62, Non-Small Cell Lung Cancer; single concentration 10^−5 M
Please respond with the number in % and leave the unit unwritten.

Please report the recorded Growth % for CN(C)c1ccc(-c2cc(-c3c[nH]c4ccccc34)nc(-c3c[nH]c4ccccc34)c2C#N)cc1 [4i] .
82.30

Could you share which Growth % value was measured for N#Cc1c(-c2ccc(O)cc2)cc(-c2c[nH]c3ccccc23)nc1-c1c[nH]c2ccccc12 [4j] ?
94.38

Field request: Growth % | item: N#Cc1c(-c2ccccc2)cc(-c2c[nH]c3ccccc23)nc1-c1c[nH]c2ccccc12 [4a]
92.66

Please give the measured Growth % for this compound: N#Cc1c(-c2ccc([N+](=O)[O-])cc2)cc(-c2c[nH]c3ccccc23)nc1-c1c[nH]c2ccccc12 [4h]
99.88

Quick one: Growth % of N#Cc1c(-c2ccc(F)cc2)cc(-c2c[nH]c3ccccc23)nc1-c1c[nH]c2ccccc12 [4d] ?
100.69

Given the entry N#Cc1c(-c2ccc(Cl)cc2)cc(-c2c[nH]c3ccccc23)nc1-c1c[nH]c2ccccc12 [4c] , report its measured Growth %.
93.62

Record request: Growth % value, item N#Cc1c(-c2ccc(Br)cc2)cc(-c2c[nH]c3ccccc23)nc1-c1c[nH]c2ccccc12 [4b]
98.17

Can you look up the measured Growth % of COc1cc(-c2cc(-c3c[nH]c4ccccc34)nc(-c3c[nH]c4ccccc34)c2C#N)cc(OC)c1OC [4g] for me?
87.93

// query Growth % value for entry COc1cc(OC)cc(-c2cc(-c3c[nH]c4ccccc34)nc(-c3c[nH]c4ccccc34)c2C#N)c1 [4f]
96.31

Report Growth % for COc1ccc(-c2cc(-c3c[nH]c4ccccc34)nc(-c3c[nH]c4ccccc34)c2C#N)cc1 [4e] please.
90.00

====

# Tested on: SF-539
# assay_text: NCI 60 cell line screen
# Type: cell-based
# run_conditions: SF-539, CNS Cancer; single concentration 10^−5 M
Hi there, I'd appreciate the recorded Growth % for every entry that follows.
Respond numerically; units are % and should not be typed.

Given the compound CN(C)c1ccc(-c2cc(-c3c[nH]c4ccccc34)nc(-c3c[nH]c4ccccc34)c2C#N)cc1 , what is its reported Growth %?
75.80

Need Growth %, item N#Cc1c(-c2ccc(Cl)cc2)cc(-c2c[nH]c3ccccc23)nc1-c1c[nH]c2ccccc12
98.85

GET /values?readout=Growth %&item= N#Cc1c(-c2ccc([N+](=O)[O-])cc2)cc(-c2c[nH]c3ccccc23)nc1-c1c[nH]c2ccccc12
97.59

// lookup Growth % for COc1ccc(-c2cc(-c3c[nH]c4ccccc34)nc(-c3c[nH]c4ccccc34)c2C#N)cc1
93.61

====

# Test system: NCI-H23
# assay_text: NCI 60 cell line screen
# Assay type: cell-based
# run_conditions: NCI-H23, Non-Small Cell Lung Cancer; single concentration 10^−5 M
Consider the following compounds; for each one, report its Growth %.

Which measured Growth % value corresponds to N#Cc1c(-c2ccccc2)cc(-c2c[nH]c3ccccc23)nc1-c1c[nH]c2ccccc12 [4a] ?
95.64%

Query: Growth %; subject: N#Cc1c(-c2ccc([N+](=O)[O-])cc2)cc(-c2c[nH]c3ccccc23)nc1-c1c[nH]c2ccccc12 [4h]
97.26%

For the compound shown here, COc1ccc(-c2cc(-c3c[nH]c4ccccc34)nc(-c3c[nH]c4ccccc34)c2C#N)cc1 [4e] , give the reported Growth %.
103.56%

Using the record for N#Cc1c(-c2ccc(F)cc2)cc(-c2c[nH]c3ccccc23)nc1-c1c[nH]c2ccccc12 [4d] , report its Growth %.
100.43%

Any idea what Growth % was measured for CN(C)c1ccc(-c2cc(-c3c[nH]c4ccccc34)nc(-c3c[nH]c4ccccc34)c2C#N)cc1 [4i] ?
88.40%

Look up Growth %: N#Cc1c(-c2ccc(Br)cc2)cc(-c2c[nH]c3ccccc23)nc1-c1c[nH]c2ccccc12 [4b]
93.93%

# get_value(readout='Growth %', item= N#Cc1c(-c2ccc(O)cc2)cc(-c2c[nH]c3ccccc23)nc1-c1c[nH]c2ccccc12 [4j] )
89.30%

# Growth % lookup, item COc1cc(OC)cc(-c2cc(-c3c[nH]c4ccccc34)nc(-c3c[nH]c4ccccc34)c2C#N)c1 [4f]
103.68%

Entry N#Cc1c(-c2ccc(Cl)cc2)cc(-c2c[nH]c3ccccc23)nc1-c1c[nH]c2ccccc12 [4c] has what Growth %?
89.48%

Name the reported Growth % value associated with the compound COc1cc(-c2cc(-c3c[nH]c4ccccc34)nc(-c3c[nH]c4ccccc34)c2C#N)cc(OC)c1OC [4g]
93.03%

====

# Test system: SK-MEL-28
# assay_text: NCI 60 cell line screen
# Type: cell-based
# run_conditions: SK-MEL-28, Melanoma; single concentration 10^−5 M
metric_name: Growth % (%)
All answers are understood in %, so give the number only.

State the recorded Growth % for this entry: COc1cc(-c2cc(-c3c[nH]c4ccccc34)nc(-c3c[nH]c4ccccc34)c2C#N)cc(OC)c1OC
107.46

GET /values?readout=Growth %&item= COc1cc(OC)cc(-c2cc(-c3c[nH]c4ccccc34)nc(-c3c[nH]c4ccccc34)c2C#N)c1
100.94

Could you share which Growth % value was measured for N#Cc1c(-c2ccc(F)cc2)cc(-c2c[nH]c3ccccc23)nc1-c1c[nH]c2ccccc12 ?
106.51

Need Growth %, item N#Cc1c(-c2ccc(Cl)cc2)cc(-c2c[nH]c3ccccc23)nc1-c1c[nH]c2ccccc12
103.30

Returns the measured Growth % for the input compound. Input: CN(C)c1ccc(-c2cc(-c3c[nH]c4ccccc34)nc(-c3c[nH]c4ccccc34)c2C#N)cc1
101.89

Look at this compound and give its reported Growth %. N#Cc1c(-c2ccc(Br)cc2)cc(-c2c[nH]c3ccccc23)nc1-c1c[nH]c2ccccc12
112.22

Any idea what its Growth % is? The compound is COc1ccc(-c2cc(-c3c[nH]c4ccccc34)nc(-c3c[nH]c4ccccc34)c2C#N)cc1
108.94

Field request: Growth % | item: N#Cc1c(-c2ccccc2)cc(-c2c[nH]c3ccccc23)nc1-c1c[nH]c2ccccc12
109.51

Name the reported Growth % value associated with the compound N#Cc1c(-c2ccc([N+](=O)[O-])cc2)cc(-c2c[nH]c3ccccc23)nc1-c1c[nH]c2ccccc12
106.75

Would you kindly share the measured Growth % for N#Cc1c(-c2ccc(O)cc2)cc(-c2c[nH]c3ccccc23)nc1-c1c[nH]c2ccccc12 ?
76.45

====

# experimental_system: CDK6/Cyclin D3 (Homo sapiens)
# Sequence (Q00534 whole entry): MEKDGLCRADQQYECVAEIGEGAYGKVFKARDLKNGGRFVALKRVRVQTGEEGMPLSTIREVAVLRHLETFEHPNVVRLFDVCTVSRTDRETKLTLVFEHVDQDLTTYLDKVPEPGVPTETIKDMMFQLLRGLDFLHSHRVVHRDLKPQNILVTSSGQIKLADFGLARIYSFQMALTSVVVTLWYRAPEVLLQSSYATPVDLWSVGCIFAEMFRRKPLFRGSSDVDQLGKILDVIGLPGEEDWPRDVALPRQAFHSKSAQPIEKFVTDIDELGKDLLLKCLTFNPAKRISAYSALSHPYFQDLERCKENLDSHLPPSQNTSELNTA
# Sequence (P30281 whole entry partner): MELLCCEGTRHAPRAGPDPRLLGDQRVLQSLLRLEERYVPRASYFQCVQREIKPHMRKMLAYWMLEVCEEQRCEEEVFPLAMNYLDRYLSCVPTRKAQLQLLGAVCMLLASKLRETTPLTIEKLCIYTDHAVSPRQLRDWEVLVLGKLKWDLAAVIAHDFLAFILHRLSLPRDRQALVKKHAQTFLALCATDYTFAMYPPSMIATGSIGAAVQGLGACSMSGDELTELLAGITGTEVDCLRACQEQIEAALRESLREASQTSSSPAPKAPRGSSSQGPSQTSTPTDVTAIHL
# assay_text: Cyclin dependent kinase enzymatic activity assay (ADP-Glo)
metric_name: pIC50
# reply with the number alone; pIC50 is -log10 of concentration in mol/L

Quick check: pIC50 on CDK6/Cyclin D3 (Homo sapiens), item CN(C)c1ccc(-c2cc(-c3c[nH]c4ccccc34)nc(-c3c[nH]c4ccccc34)c2C#N)cc1 [4i] ?
7.01

====

# experimental_system: CDK4/Cyclin D3 (Homo sapiens)
# Sequence (P11802 whole entry): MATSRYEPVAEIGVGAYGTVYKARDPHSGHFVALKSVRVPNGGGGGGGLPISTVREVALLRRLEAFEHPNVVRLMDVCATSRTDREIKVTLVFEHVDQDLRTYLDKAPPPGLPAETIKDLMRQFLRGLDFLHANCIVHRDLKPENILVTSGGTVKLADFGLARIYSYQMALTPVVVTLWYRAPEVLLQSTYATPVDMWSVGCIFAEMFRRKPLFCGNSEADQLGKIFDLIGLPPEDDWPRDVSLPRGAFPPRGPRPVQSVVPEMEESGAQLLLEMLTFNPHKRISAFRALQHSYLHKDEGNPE
# Sequence (P30281 whole entry partner): as the sequence (P30281 whole entry partner) above
# assay_text: Cyclin dependent kinase enzymatic activity assay (ADP-Glo)
metric_name: pIC50
Lab note — pIC50 values are minus log10 of concentrations in M.

Would you kindly share the measured pIC50 for CN(C)c1ccc(-c2cc(-c3c[nH]c4ccccc34)nc(-c3c[nH]c4ccccc34)c2C#N)cc1 ?
6.58

====

Give Growth % for every item shown.
# Tested on: SW-620
# assay_text: NCI 60 cell line screen
# Format: cell-based
# run_conditions: SW-620, Colon Cancer; single concentration 10^−5 M

Given N#Cc1c(-c2ccccc2)cc(-c2c[nH]c3ccccc23)nc1-c1c[nH]c2ccccc12 [4a] , state its recorded Growth %.
101.78%

Tell me the measured Growth % of CN(C)c1ccc(-c2cc(-c3c[nH]c4ccccc34)nc(-c3c[nH]c4ccccc34)c2C#N)cc1 [4i] , please.
46.63%

Fill blank: measured Growth % of the molecule COc1ccc(-c2cc(-c3c[nH]c4ccccc34)nc(-c3c[nH]c4ccccc34)c2C#N)cc1 [4e] is ____.
113.43%

What Growth % value was documented for this molecule, N#Cc1c(-c2ccc(O)cc2)cc(-c2c[nH]c3ccccc23)nc1-c1c[nH]c2ccccc12 [4j] ?
108.39%

Could you tell me which Growth % is on file for N#Cc1c(-c2ccc(F)cc2)cc(-c2c[nH]c3ccccc23)nc1-c1c[nH]c2ccccc12 [4d] ?
106.63%

What does the data say about its Growth %? Entry: COc1cc(-c2cc(-c3c[nH]c4ccccc34)nc(-c3c[nH]c4ccccc34)c2C#N)cc(OC)c1OC [4g]
100.40%

What value of Growth % has been reported for the following molecule? N#Cc1c(-c2ccc(Cl)cc2)cc(-c2c[nH]c3ccccc23)nc1-c1c[nH]c2ccccc12 [4c]
106.55%

I have this molecule here, COc1cc(OC)cc(-c2cc(-c3c[nH]c4ccccc34)nc(-c3c[nH]c4ccccc34)c2C#N)c1 [4f] , and I need its recorded Growth %.
102.51%

# get_value(readout='Growth %', item= N#Cc1c(-c2ccc(Br)cc2)cc(-c2c[nH]c3ccccc23)nc1-c1c[nH]c2ccccc12 [4b] )
105.18%

So what's the measured Growth % for this one? N#Cc1c(-c2ccc([N+](=O)[O-])cc2)cc(-c2c[nH]c3ccccc23)nc1-c1c[nH]c2ccccc12 [4h]
105.72%
